Tested on: CTNNB1
Test: In vivo evaluation in mice: liver mRNA knockdown measurement (TaqMan qPCR)
Design: species or system CD-1 mice
Conditions: Table 6; mice; sequential, peptide IV 15 min after siRNA IV; TGN-L-siRNA-III 0.25 mg/kg; peptide 10 mg/kg
Where no end group is shown, it is not given here. TGN = not defined here
Assign rule met to entries whose In vivo mRNA knockdown (%) meets or exceeds 20%; assign rule not met to the rest.

Recorded results for 6 substances are shown here.
TGN-S-S-SEQ ID NO: 935 (L) (C(TGN)GFFGEIAELIWEGLKNLIDWWNG; reading uncertain; also: TGN attached via disulfide (S-S); listed as Homo sapiens)    rule met
TGN-S-S-SEQ ID NO: 1403 (L) (C(TGN)GLLEEIEELLEEGLENLIDWWNS; reading uncertain; listed as Homo sapiens)    rule met
TGN-S-S-SEQ ID NO: 1731(D): TGN-S-S-peptide, peptide CGIGAVLHVLTTGLPALISWIHHHHQQ    rule met
TGN-S-S-SEQ ID NO: 1730 (D): TGN-S-S-peptide, peptide CGIGAVLHVLTTGLPALISWIKRKRQQ    rule met
TGN-S-S-SEQ ID NO: 1713 (L): TGN-S-S-peptide, peptide CGL-R6H-GELEEL-S7H-EEGLENLIDWWNG (STAPLED)    rule not met
TGN-S-S-SEQ ID NO: 1725 (L) (C(TGN)SSAWWSYWPPVA; reading uncertain; also: Cys disulfide-linked to TGN peptide; listed as Homo sapiens)    rule not met

Now for another entry.
Given TGN-S-S-SEQ ID NO: 1729 (L) (C(TGN)GPSQPTYPGDDAPVRDLIRFYRDLRRYLNVVTRHRY; reading uncertain; also: Cys disulfide-linked to TGN peptide; listed as Homo sapiens) , state whether its In vivo mRNA knockdown (%) is at least 20%.
rule not met

---

Test system: CTNNB1
Experiment: In vivo evaluation in mice: liver mRNA knockdown measurement (TaqMan qPCR)
Design: species or system CD-1 mice
Conditions: Table 6; mice; sequential, peptide IV 15 min after siRNA IV; TGN-L-siRNA-III 0.25 mg/kg; peptide 5 mg/kg
Where no end group is shown, it is not given here. TGN = not defined here
In this section we review reported In vivo mRNA knockdown (%) values for a set of substances.
Write the answer as a number in %, unit excluded.

Examples with their reported In vivo mRNA knockdown (%) follow.
TGN-S-S-SEQ ID NO: 1719 (L) (C(TGN)GLFAEIEELIWEGLENLIDWWNQ; reading uncertain; also: Cys disulfide-linked to TGN peptide; listed as Homo sapiens)    25
TGN-S-S-SEQ ID NO: 1516 (L) (C(TGN)GLFAEIEELLEEGLENLIDWWNG; reading uncertain; listed as Homo sapiens)    14

The measured In vivo mRNA knockdown (%) associated with TGN-S-S-SEQ ID NO: 1733 (D): TGN-S-S-peptide, peptide AC-GLFGALAEALAEALAEHLAEALAEALEALAAGGSC reads 73

The measured In vivo mRNA knockdown (%) associated with TGN-S-S-SEQ ID NO: 1732 (D): TGN-S-S-peptide, peptide AC-GIFEAIAGLLKINFKC reads 35

The measured In vivo mRNA knockdown (%) associated with TGN-S-S-SEQ ID NO: 1734 (D): TGN-S-S-peptide, peptide AC-GLFEAIEGFIENGWEGLAELAEALEALAAGGSC reads 61

---

In this section we review reported In vivo mRNA knockdown (%) values for a set of substances.
Test system: CTNNB1
Assay: In vivo evaluation in mice: liver mRNA knockdown measurement (TaqMan qPCR)
Design: species or system CD-1 mice
Conditions: Table 6; mice; sequential, peptide IV 15 min after siRNA IV; TGN-L-siRNA-II 0.25 mg/kg; peptide 3 mg/kg
Where no end group is shown, it is not given here. [ ]: non-standard residue; d: D form. TGN = not defined here
Write the answer as a number in %, unit excluded.

The measured In vivo mRNA knockdown (%) associated with TGN-S-S-SEQ ID NO: 1740 (L): TGN-S-S-peptide, peptide GLFEAIEGFIENGWEGLAELAEALEALAAGGSC (GLFEAIEGFIENGWEGLAELAEALEALAAGGSC(TGN); reading uncertain; also: TGN attached via disulfide (S-S); listed as Homo sapiens) reads 20

The measured In vivo mRNA knockdown (%) associated with TGN-S-S-SEQ ID NO: 1733 (D): TGN-S-S-peptide, peptide AC-GLFGALAEALAEALAEHLAEALAEALEALAAGGSC reads 75

The measured In vivo mRNA knockdown (%) associated with TGN-S-S-SEQ ID NO: 1741(L): TGN-S-S-peptide, peptide GLFGALAEALAEALAEHLAEALAEALEALAAGGSC (GLFGALAEALAEALAEHLAEALAEALEALAAGGSC(TGN); reading uncertain; also: TGN attached via disulfide (S-S); listed as Homo sapiens) reads 24

The measured In vivo mRNA knockdown (%) associated with TGN-S-S-SEQ ID NO: 1740 (D): TGN-S-S-peptide, peptide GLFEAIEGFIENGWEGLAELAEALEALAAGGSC (G[dL][dF][dE][dA][dI][dE]G[dF][dI][dE][dN]G[dW][dE]G[dL][dA][dE][dL][dA][dE][dA][dL][dE][dA][dL][dA][dA]GG[dS][dC]; not fully specified; also: disulfide to TGN peptide via C-terminal Cys; listed as Homo sapiens) reads 42

Data provenance is patent US10532068B2.
